# testSummary: in vivo
# cond: mouse, plasma, sc, 10 mg/kg

| compound | AUC(0-inf) [µM·h] |
| --- | --- |
| CN(Cc1cnc2nc(N)nc(N)c2n1)c1ccc(C(=O)N[C@@H](CCC(=O)O)C(=O)O)cc1 [unencapsulated methotrexate, methotrexate] | 17.3 |

###

# testSummary: in vivo
# cond: rat, Conc. t1/2 β (terminal half-life, CSF)

| molecule | half-life, h |
| --- | --- |
| CN(Cc1cnc2nc(N)nc(N)c2n1)c1ccc(C(=O)N[C@@H](CCC(=O)O)C(=O)O)cc1 [unencapsulated methotrexate, methotrexate] | 7.2 |

###

# testSummary: in vivo
# cond: rat, Amount t1/2 (total amount of drug within CNS)

| compound | u | half-life |
| --- | --- | --- |
| CN(Cc1cnc2nc(N)nc(N)c2n1)c1ccc(C(=O)N[C@@H](CCC(=O)O)C(=O)O)cc1 [unencapsulated methotrexate, methotrexate] | min | 43.2 |

###

# testSummary: Toxicity and therapeutic index of single intraperitoneal dose
# Set-up: species or system mouse (BDF1)
# cond: in vivo; mouse, single ip dose, probit transformation

| compound | LD50 / mg/kg |
| --- | --- |
| CN(Cc1cnc2nc(N)nc(N)c2n1)c1ccc(C(=O)N[C@@H](CCC(=O)O)C(=O)O)cc1 [unencapsulated methotrexate, methotrexate] | 2760 |

###

# testSummary: in vivo
# cond: rat, Conc. t1/2 α (initial half-life, CSF)
valueType: half-life (min)

| compound | valueType | numericResult |
| --- | --- | --- |
| CN(Cc1cnc2nc(N)nc(N)c2n1)c1ccc(C(=O)N[C@@H](CCC(=O)O)C(=O)O)cc1 [unencapsulated methotrexate, methotrexate] | half-life | 34.6 |

###

# testSummary: in vivo
# cond: mouse, plasma, ip, 10 mg/kg
valueType: half-life (min)

| molecule | u | numericResult |
| --- | --- | --- |
| CN(Cc1cnc2nc(N)nc(N)c2n1)c1ccc(C(=O)N[C@@H](CCC(=O)O)C(=O)O)cc1 [unencapsulated methotrexate, methotrexate] | min | 54 |

###

# testSummary: in vivo
# cond: rat

| molecule | concentration at 4 h, µM |
| --- | --- |
| CN(Cc1cnc2nc(N)nc(N)c2n1)c1ccc(C(=O)N[C@@H](CCC(=O)O)C(=O)O)cc1 [unencapsulated methotrexate, methotrexate] | 0.11 |

###

# testSummary: in vivo
# cond: mouse, plasma, sc, 10 mg/kg

| compound | half-life (min) |
| --- | --- |
| CN(Cc1cnc2nc(N)nc(N)c2n1)c1ccc(C(=O)N[C@@H](CCC(=O)O)C(=O)O)cc1 [unencapsulated methotrexate, methotrexate] | 31.8 |

###

# testSummary: in vivo
# cond: mouse, plasma, sc, 10 mg/kg

| molecule | Cmax |
| --- | --- |
| CN(Cc1cnc2nc(N)nc(N)c2n1)c1ccc(C(=O)N[C@@H](CCC(=O)O)C(=O)O)cc1 [unencapsulated methotrexate, methotrexate] | 17.4 µM |

###

# testSummary: in vivo
# cond: mouse, peritoneal fluid, ip, 10 mg/kg
valueType: AUC(0-inf) (µM·h)

| molecule | numericResult |
| --- | --- |
| CN(Cc1cnc2nc(N)nc(N)c2n1)c1ccc(C(=O)N[C@@H](CCC(=O)O)C(=O)O)cc1 [unencapsulated methotrexate, methotrexate] | 233 |

###

# testSummary: in vivo
# cond: mouse, peritoneal fluid, ip, 10 mg/kg
valueType: Cmax (µM)

| compound | u | numericResult |
| --- | --- | --- |
| CN(Cc1cnc2nc(N)nc(N)c2n1)c1ccc(C(=O)N[C@@H](CCC(=O)O)C(=O)O)cc1 [unencapsulated methotrexate, methotrexate] | µM | 430 |

###

# testSummary: in vivo
# cond: mouse, peritoneal fluid, ip, 10 mg/kg

| molecule | u | half-life |
| --- | --- | --- |
| CN(Cc1cnc2nc(N)nc(N)c2n1)c1ccc(C(=O)N[C@@H](CCC(=O)O)C(=O)O)cc1 [unencapsulated methotrexate, methotrexate] | min | 32.4 |

###

# testSummary: in vivo
# cond: mouse, plasma, ip, 10 mg/kg

| compound | AUC(0-inf) (µM·h) |
| --- | --- |
| CN(Cc1cnc2nc(N)nc(N)c2n1)c1ccc(C(=O)N[C@@H](CCC(=O)O)C(=O)O)cc1 [unencapsulated methotrexate, methotrexate] | 11.2 |

###

# testSummary: in vivo
# cond: mouse, plasma, sc, 10 mg/kg

| compound | Tmax (min) |
| --- | --- |
| CN(Cc1cnc2nc(N)nc(N)c2n1)c1ccc(C(=O)N[C@@H](CCC(=O)O)C(=O)O)cc1 [unencapsulated methotrexate, methotrexate] | 15 |
